Hey, just so you know, these numbers are from PubChem BioAssay AID504652.

Biological target: D(1A) dopamine receptor (Homo sapiens) (UniProt P21728)
Sequence (P21728 whole entry, looked up): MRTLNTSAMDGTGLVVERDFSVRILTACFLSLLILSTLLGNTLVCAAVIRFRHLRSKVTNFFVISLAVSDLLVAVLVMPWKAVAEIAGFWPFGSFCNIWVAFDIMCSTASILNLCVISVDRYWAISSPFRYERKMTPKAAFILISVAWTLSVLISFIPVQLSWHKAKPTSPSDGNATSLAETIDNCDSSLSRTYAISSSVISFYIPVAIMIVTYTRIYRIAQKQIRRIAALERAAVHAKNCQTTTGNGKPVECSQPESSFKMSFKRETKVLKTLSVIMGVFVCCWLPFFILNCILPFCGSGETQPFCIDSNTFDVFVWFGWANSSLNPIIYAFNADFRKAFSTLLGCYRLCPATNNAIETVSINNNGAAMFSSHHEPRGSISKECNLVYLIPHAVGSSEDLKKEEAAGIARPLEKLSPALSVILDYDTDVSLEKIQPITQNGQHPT
Experiment: Antagonist of Human D 1 Dopamine Receptor: qHTS; also: % is scaled to controls: 0 for no effect and ±100 for the full control effect
Details: HEK293 TREx D1 cells, calcium flux, dopamine EC80; at 10 µM; hits give low values
About 11,000 (3.1%) of roughly 360,000 compounds were called active. Many of the other results were omitted from the sample, so actives are more common in it than they were.
Property: activity change, negative = inhibition; scope: individual compounds
Expressed in %, but write only the number.

Previously resolved entries follow.
COc1ccc(CCNc2ncnc3c2cnn3-c2ccc(C)cc2)cc1 :: -63.8
COc1ccc(CN(C)C(=O)CC(c2ccccc2)c2ccccc2)cc1 :: -31.6
COc1ccc(C(CCN(Cc2ccc(OC)c(OC)c2)C(=O)CCl)c2ccccc2)cc1 (stereo unspecified) :: 0.248

q: Lab note: need activity change, negative = inhibition for O=C1C(F)N([S+](=O)([O-])c2ccc3c(c2)OCCO3)CCN1[S+](=O)([O-])c1c(F)cccc1F (stereo unspecified) on D(1A) dopamine receptor (Homo sapiens) (UniProt P21728), anyone have it?
a: -5.38

q: Lab note: need activity change, negative = inhibition for `Cn1c(=O)c2c(nc(SCC(=O)Nc3ccc(F)cc3)n2Cc2ccc(Cl)cc2)n(C)c1=O` on D(1A) dopamine receptor (Homo sapiens) (UniProt P21728), anyone have it?
a: -3.1

q: Lab note: need activity change, negative = inhibition for `COC(=O)c1sccc1S(=O)(=O)N(CC(=O)Nc1ccc(C)c(F)c1)c1ccc(C)c(C)c1` on D(1A) dopamine receptor (Homo sapiens) (UniProt P21728), anyone have it?
a: -13.6

q: Lab note: need activity change, negative = inhibition for `O=S(=O)(c1ccccc1)N(Cc1cccc(F)c1)c1ccccc1` on D(1A) dopamine receptor (Homo sapiens) (UniProt P21728), anyone have it?
a: -30.7

q: Lab note: need activity change, negative = inhibition for `CN(Cc1ccccc1)C(=O)COc1ccccc1` on D(1A) dopamine receptor (Homo sapiens) (UniProt P21728), anyone have it?
a: 2.23
